System: ME-1 (Acute Myeloid Leukemia)
protocol text: Bliss excess, mean over the matrix (fraction); higher = more synergy
Bliss excess overview
Would you mind answering with just the numeric figure?

COc1nnc2ccc(N3CCC(c4ccc(OCCN5CCN(C)C(=O)[C@H]5C)cc4)CC3)nn12 [AZD5153] + CCN(CCO)CCCOc1ccc2c(Nc3cc(CC(=O)Nc4cccc(F)c4)[nH]n3)ncnc2c1 [AZD2811] (first compound max 1 µM, 7x7, partner max 1 µM)    -0.0534

Proceeding to the next compound to report its Bliss excess.
Query: For COc1cccc(OCCCN)c1-c1cc(Nc2cnc(C#N)cn2)n[nH]1 [Prexasertib] + CN(C)CCCOc1ccc(-c2ccc3ncc4c(c3c2)n(C2CCOCC2)c(=O)n4C)cn1 [AZD0156] (first compound max 1 µM, 7x7, partner max 1 µM) , what is its reported Bliss excess?
Response: -0.0167

====

System: DoTc2-4510 (Cervical Carcinoma)
protocol text: combination Emax (second highest fraction inhibited in the dose matrix, 72 h); higher = more inhibition; extreme values may be limits of the assay
In this section we review reported combination Emax values for a set of molecules.
// no unit string in output, number only

These solved cases illustrate the format of a correct answer.
NC1(C(=O)N[C@@H](CCO)c2ccc(Cl)cc2)CCN(c2ncnc3[nH]ccc23)CC1 [Capivasertib] + CC(=O)c1c(C)c2cnc(Nc3ccc(N4CCNCC4)cn3)nc2n(C2CCCC2)c1=O [Palbociclib] (first compound max 10 µM, 7x7, partner max 10 µM)    0.181
CN(CCO)CC[C@H](CSc1ccccc1)Nc1ccc(S(=O)(=O)NC(=O)c2ccc(N3CCC([C@@H](O)c4ccccc4-c4ccc(Cl)cc4)CC3)cc2)cc1S(=O)(=O)C(F)(F)F [AZD4320] + C[C@@H](Nc1cc(F)cc(F)c1)c1cc(C(=O)N(C)C)cc2c(=O)cc(N3CCOCC3)oc12 [AZD8186] (first compound max 1 µM, 7x7, partner max 3 µM)    0.911
CC1(C)CCC(CN2CCN(c3ccc(C(=O)NS(=O)(=O)c4ccc(NCC5CCOCC5)c([N+](=O)[O-])c4)c(Oc4cnc5[nH]ccc5c4)c3)CC2)=C(c2ccc(Cl)cc2)C1 [Venetoclax] + Cn1cnc2c(F)c(Nc3ccc(Br)cc3Cl)c(C(=O)NOCCO)cc21 [Selumetinib] (first compound max 1 µM, 7x7, partner max 3 µM)    0.268
C[C@@H](Oc1cc(-c2cnn(C3CCNCC3)c2)cnc1N)c1c(Cl)ccc(F)c1Cl [Crizotinib] + CC1=C(C(=CC=C1)Cl)NC(=O)C2=CN=C(S2)NC3=CC(=NC(=N3)C)N4CCN(CC4)CCO [Dasatinib] (first compound max 10 µM, 7x7, partner max 2 µM)    0.897

# evaluate next
Query: Returns the measured combination Emax for the input molecule. Input: CN(C)CCCOc1ccc(-c2ccc3ncc4c(c3c2)n(C2CCOCC2)c(=O)n4C)cn1 [AZD0156] + CCN(CCO)CCCOc1ccc2c(Nc3cc(CC(=O)Nc4cccc(F)c4)[nH]n3)ncnc2c1 [AZD2811] (first compound max 1 µM, 7x7, partner max 1 µM)
Response: 0.186

====

Reported combination Emax by item:
Test system: KP-1N (Pancreatic Carcinoma)
protocol text: combination Emax (second highest fraction inhibited in the dose matrix, 72 h); higher = more inhibition; extreme values may be limits of the assay
Please give only the number in your answer, with no unit.

CC(=O)c1c(C)c2cnc(Nc3ccc(N4CCNCC4)cn3)nc2n(C2CCCC2)c1=O [Palbociclib] + CC1(C)CCC(CN2CCN(c3ccc(C(=O)NS(=O)(=O)c4ccc(NCC5CCOCC5)c([N+](=O)[O-])c4)c(Oc4cnc5[nH]ccc5c4)c3)CC2)=C(c2ccc(Cl)cc2)C1 [Venetoclax] (first compound max 10 µM, 7x7, partner max 1 µM)    0.212
CCN(CCO)CCCOc1ccc2c(Nc3cc(CC(=O)Nc4cccc(F)c4)[nH]n3)ncnc2c1 [AZD2811] + C=CCn1c(=O)c2cnc(Nc3ccc(N4CCN(C)CC4)cc3)nc2n1-c1cccc(C(C)(C)O)n1 [AZD1775] (first compound max 1 µM, partner max 1 µM)    0.401

Query: So what's the measured combination Emax for this one? NC1(C(=O)N[C@@H](CCO)c2ccc(Cl)cc2)CCN(c2ncnc3[nH]ccc23)CC1 [Capivasertib] + CCN(CCO)CCCOc1ccc2c(Nc3cc(CC(=O)Nc4cccc(F)c4)[nH]n3)ncnc2c1 [AZD2811] (first compound max 10 µM, 7x7, partner max 1 µM)
Response: 0.288

====

Tested on: NB10 (Neuroblastoma)
protocol text: Bliss excess, mean over the matrix (fraction); higher = more synergy
Label f if Bliss excess falls below -0.02; label t in every other case.

// below: answered compounds
COc1cc2c(cc1OCCCCCOc1cc3c(cc1OC)C(=O)N1C=C(C)C[C@H]1C=N3)N=C[C@@H]1CC(C)=CN1C2=O [SG3199] + O=C(c1cc(Cc2n[nH]c(=O)c3ccccc23)ccc1F)N1CCN(C(=O)C2CC2)CC1 [Olaparib] (first compound max 0.001 µM, 7x7, partner max 10 µM)    t
CCc1c2c(nc3ccc(O)cc13)-c1cc3c(c(=O)n1C2)COC(=O)[C@]3(O)CC [SN-38] + O=C(c1cc(Cc2n[nH]c(=O)c3ccccc23)ccc1F)N1CCN(C(=O)C2CC2)CC1 [Olaparib] (first compound max 0.3 µM, 7x7, partner max 10 µM)    t
CC1(C)CCC(CN2CCN(c3ccc(C(=O)NS(=O)(=O)c4ccc(NCC5CCOCC5)c([N+](=O)[O-])c4)c(Oc4cnc5[nH]ccc5c4)c3)CC2)=C(c2ccc(Cl)cc2)C1 [Venetoclax] + CS(=O)(=O)CCNCc1ccc(-c2ccc3ncnc(Nc4ccc(OCc5cccc(F)c5)c(Cl)c4)c3c2)o1 [Lapatinib] (first compound max 1 µM, 7x7, partner max 10 µM)    f
N#Cc1cnc(Nc2cc(NC[C@H]3CNCCO3)c(C(F)(F)F)cn2)cn1 [SRA737] + Nc1ccn([C@@H]2O[C@H](CO)[C@@H](O)C2(F)F)c(=O)n1 [Gemcitabine] (first compound max 10 µM, 7x7, partner max 0.3 µM)    t
CN(CCO)CC[C@H](CSc1ccccc1)Nc1ccc(S(=O)(=O)NC(=O)c2ccc(N3CCC([C@@H](O)c4ccccc4-c4ccc(Cl)cc4)CC3)cc2)cc1S(=O)(=O)C(F)(F)F [AZD4320] + C[C@@H]1COCCN1C2=NC(=NC(=C2)C3(CC3)[S@](=N)(=O)C)C4=C5C=CNC5=NC=C4 [AZD6738] (first compound max 1 µM, 7x7, partner max 10 µM)    f

Query: API: above_or_equal(metric=Bliss excess, cutoff=-0.02) for item Cc1cc2ncnn2cc1Nc1ncc2c(n1)n(C1CCOCC1)c(=O)n2C [AZD7648] + CN(C)CCCOc1ccc(-c2ccc3ncc4c(c3c2)n(C2CCOCC2)c(=O)n4C)cn1 [AZD0156] (first compound max 10 µM, 7x7, partner max 1 µM)
Response: t

====

Tested on: Calu-3 (Lung Adenocarcinoma)
protocol text: combination Emax (second highest fraction inhibited in the dose matrix, 72 h); higher = more inhibition; extreme values may be limits of the assay
Attribute: combination Emax
Answer field: number only, no words.

C[C@@H](Nc1cc(F)cc(F)c1)c1cc(C(=O)N(C)C)cc2c(=O)cc(N3CCOCC3)oc12 [AZD8186] + CC(=O)c1c(C)c2cnc(Nc3ccc(N4CCNCC4)cn3)nc2n(C2CCCC2)c1=O [Palbociclib] (first compound max 10 µM, 7x7, partner max 10 µM)    0.281

Query: Dear colleague, I am looking for the recorded combination Emax of the following molecule: COc1cccc(OCCCN)c1-c1cc(Nc2cnc(C#N)cn2)n[nH]1 [Prexasertib] + CCc1c2c(nc3ccc(O)cc13)-c1cc3c(c(=O)n1C2)COC(=O)[C@]3(O)CC [SN-38] (first compound max 1 µM, 7x7, partner max 0.3 µM)
Response: 0.549

Query: Then N#Cc1cnc(Nc2cc(NC[C@H]3CNCCO3)c(C(F)(F)F)cn2)cn1 [SRA737] + O=c1[nH]cc(F)c(=O)[nH]1 [5-Fluorouracil] (first compound max 10 µM, 7x7, partner max 20 µM) ?
Response: 0.213

Query: And for C[C@@H](c1ccc2nccn2c1)n1nnc2ncc(-c3cnn(C)c3)nc21 [Savolitinib] + CC1(C)CCC(CN2CCN(c3ccc(C(=O)NS(=O)(=O)c4ccc(NCC5CCOCC5)c([N+](=O)[O-])c4)c(Oc4cnc5[nH]ccc5c4)c3)CC2)=C(c2ccc(Cl)cc2)C1 [Venetoclax] (first compound max 1 µM, 7x7, partner max 1 µM) ?
Response: 0.153

====

System: HuP-T4 (Pancreatic Carcinoma)
protocol text: combination Emax (second highest fraction inhibited in the dose matrix, 72 h); higher = more inhibition; extreme values may be limits of the assay
Entries and their combination Emax

Guide cases for combination Emax, answers given:
CN(CCO)CC[C@H](CSc1ccccc1)Nc1ccc(S(=O)(=O)NC(=O)c2ccc(N3CCC([C@@H](O)c4ccccc4-c4ccc(Cl)cc4)CC3)cc2)cc1S(=O)(=O)C(F)(F)F [AZD4320] + Cn1cnc2c(F)c(Nc3ccc(Br)cc3Cl)c(C(=O)NOCCO)cc21 [Selumetinib] (first compound max 1 µM, 7x7, partner max 3 µM)    0.544
COc1cc2c(cc1OCCCCCOc1cc3c(cc1OC)C(=O)N1C=C(C)C[C@H]1C=N3)N=C[C@@H]1CC(C)=CN1C2=O [SG3199] + O=C(c1cc(Cc2n[nH]c(=O)c3ccccc23)ccc1F)N1CCN(C(=O)C2CC2)CC1 [Olaparib] (first compound max 0.001 µM, 7x7, partner max 10 µM)    0.0469
Cc1c2c(nn1C)CSCc1cc(n(C)n1)CSc1cc(c3ccccc3c1)OCCCc1c(C(=O)O)n(C)c3c-2c(Cl)ccc13 [AZD5991] + C1CN(CCC1(C(=O)N[C@@H](CCO)C2=CC=C(C=C2)Cl)N)C3=NC=NC4=C3C=CN4 [Capivasertib] (first compound max 1 µM, 7x7, partner max 3 µM)    0.351
CCc1c2c(nc3ccc(O)cc13)-c1cc3c(c(=O)n1C2)COC(=O)[C@]3(O)CC [SN-38] + O=C(c1cc(Cc2n[nH]c(=O)c3ccccc23)ccc1F)N1CCN(C(=O)C2CC2)CC1 [Olaparib] (first compound max 0.3 µM, 7x7, partner max 10 µM)    0.948

Consider the additional compound presented here.
Query: Item under review: CN(CCO)CC[C@H](CSc1ccccc1)Nc1ccc(S(=O)(=O)NC(=O)c2ccc(N3CCC([C@@H](O)c4ccccc4-c4ccc(Cl)cc4)CC3)cc2)cc1S(=O)(=O)C(F)(F)F [AZD4320] + C1CN(CCC1(C(=O)N[C@@H](CCO)C2=CC=C(C=C2)Cl)N)C3=NC=NC4=C3C=CN4 [Capivasertib] (first compound max 1 µM, 7x7, partner max 3 µM) . Reported combination Emax?
Response: 0.0723
